study-system: Recombinant human α-L-iduronidase protein (Homo sapiens)
Sequence (P35475 28-653): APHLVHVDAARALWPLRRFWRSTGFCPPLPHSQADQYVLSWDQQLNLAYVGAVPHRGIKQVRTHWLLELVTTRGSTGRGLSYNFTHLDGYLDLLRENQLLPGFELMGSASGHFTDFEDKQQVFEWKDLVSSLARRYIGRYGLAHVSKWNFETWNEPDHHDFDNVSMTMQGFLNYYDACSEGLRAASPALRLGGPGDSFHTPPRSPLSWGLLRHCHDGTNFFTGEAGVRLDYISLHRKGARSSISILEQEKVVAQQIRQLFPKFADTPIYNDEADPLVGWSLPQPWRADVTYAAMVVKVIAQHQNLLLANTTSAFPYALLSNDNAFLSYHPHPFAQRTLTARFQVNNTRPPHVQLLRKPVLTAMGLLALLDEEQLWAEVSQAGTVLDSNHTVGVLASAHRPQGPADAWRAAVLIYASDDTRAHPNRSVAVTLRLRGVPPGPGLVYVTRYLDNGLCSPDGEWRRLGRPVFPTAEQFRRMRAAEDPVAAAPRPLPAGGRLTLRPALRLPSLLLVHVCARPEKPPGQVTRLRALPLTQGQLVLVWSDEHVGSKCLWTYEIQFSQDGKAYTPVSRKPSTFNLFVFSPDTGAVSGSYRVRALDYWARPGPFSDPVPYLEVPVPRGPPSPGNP
measurement-notes: Differential scanning fluorimetry (DSF) thermal stabilization
details: thermal shift dose response curve
readout-kind: Kd (µM)
Numeric only. Scale: µM

Case `CCN(CC(=O)Nc1c(Cl)cccc1Cl)Cc1nc2ccsc2c(=O)[nH]1` , Recombinant human α-L-iduronidase protein (Homo sapiens), Kd recorded as 22

* * *

measurement-notes: In vivo safety / IV maximum tolerated dose
details: mouse, in vivo, iv
readout-kind: MTD (mg/kg)
All answers are understood in mg/kg, so give the number only.

What the record says about `CCN(CC(=O)Nc1c(Cl)cccc1Cl)Cc1nc2ccsc2c(=O)[nH]1` : MTD is 45

Origin of measurements: patent US20230140216A1
